Target: SHP1 (Homo sapiens, UniProt P29350)
Sequence (P29350 244-515 limits assumed): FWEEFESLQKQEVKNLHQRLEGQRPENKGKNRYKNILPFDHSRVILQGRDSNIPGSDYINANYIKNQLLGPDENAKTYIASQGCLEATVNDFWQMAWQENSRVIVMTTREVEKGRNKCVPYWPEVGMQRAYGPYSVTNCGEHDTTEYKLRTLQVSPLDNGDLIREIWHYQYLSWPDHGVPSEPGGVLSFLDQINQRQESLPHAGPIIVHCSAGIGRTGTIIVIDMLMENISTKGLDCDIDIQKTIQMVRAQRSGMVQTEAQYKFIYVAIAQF
readout: pIC50
Numbers only, as −log10 of the molar value.

Exam item: Entry CO[C@@]1(C)[C@H](O)C(=O)C(C)=C(O)[C@@H]1Oc1c(C)c(O)cc(C)c1C(=O)O , system SHP1 (Homo sapiens, UniProt P29350): what pIC50 was measured?
Marked response: 4.80
